System: MS2 coat protein
Assay: apparent KD of MS2 coat protein; designed switch direction (-1 OFF switch, 1 ON switch): -1; higher = weaker reporter binding
Conditions: input ligand: microRNA oligo, concentration not stated
metricName: apparent KD of MS2 coat protein (nM)
State the answer as a number, implicitly in nM.

sequenceentry="UUAAAUCAUGUAGGAUAUGCGUGGAGAAGCUAUGCAGAAGGACAUGAGGAUCACCCAUGUGCUUCCGUCUGCGUACAGAUGGUA [Mat - Exclusion NG 1 - Mod of JL - D7] (Eterna round: R96, puzzle: Exclusion NG 1)" metricname="apparent KD of MS2 coat protein" unittext=nM reportedmeasurement=17.1
sequenceentry="CGCGUUUAUGUAGGAUAUGCCUGGCGUGCCUUAGCAGAAGGACAUGAGGAUCACCCAUGUAACAUGAGGCUCACCCAUGUCGCA (Eterna round: R96, puzzle: Exclusion NG 1)" metricname="apparent KD of MS2 coat protein" unittext=nM reportedmeasurement=120
sequenceentry="ACAUGAGGAUCACCCAUGUGACCACAAUGGCUGAUGUAACAACAGGAUAUGUGUGAAUAUCUAACACAGAAGGGUUUUGACUGG [Deportation 58 - Jieux - Exclusion NG 3] (Eterna round: R96, puzzle: Exclusion NG 3)" metricname="apparent KD of MS2 coat protein" unittext=nM reportedmeasurement=59.3

Q: What measured apparent KD of MS2 coat protein goes with GCGCCAUCGUGAGAUGGCGUAACGACAUGAGGAUCACCCAUGUAGGAUAUCGAUUGCUUUGCAGUCGAGAAGGGCAAGGUAAGU [JL ENG3 3.83] (Eterna round: R96, puzzle: Exclusion NG 3) ?
A: 24.3

###

Test system: MS2 coat protein
Experiment: apparent KD of MS2 coat protein; designed switch direction (-1 OFF switch, 1 ON switch): -1; higher = weaker reporter binding
Settings: input ligand: FMN 200 uM
metricName: apparent KD of MS2 coat protein (nM)
State the answer as a number, implicitly in nM.

See these solved cases before continuing.
sequenceentry="CACAAAACUGUCAGGAUAUCAGAUGCCGACCCAUAUGAGAAGGGACAUGAGGAUCACCCAUGUACUGGUUCUCA [BmEX4 B.6] (Eterna round: R97, puzzle: Brourd's mod of Exclusion 4)" assaysystem="MS2 coat protein" metricname="apparent KD of MS2 coat protein" unittext=nM reportedmeasurement=13.9
sequenceentry="ACAAGCUUAAUCAGUAUGAACAUGAGGAUCACCCAUGUAAAAGGGAAUACUAUUGGGUUUUUUAAAGCUCGUCUUAU [JR_STOV1_Sub017] (Eterna round: R97, puzzle: Sensor, turn-off variant 1)" assaysystem="MS2 coat protein" metricname="apparent KD of MS2 coat protein" unittext=nM reportedmeasurement=23

Q: What measured apparent KD of MS2 coat protein goes with GUCAGCUCGUGAGGAUAUACAUGAGGAUCACCCAUGUGAUCAAUAGCAGCUUCGGCUGCAUUAAUGUAGAAGGCACGAGCUGAU [ENG2/5-A2] (Eterna round: R96, puzzle: Exclusion NG 2) ?
A: 10.1

###

System: MS2 coat protein
Experiment: apparent KD of MS2 coat protein; designed switch direction (-1 OFF switch, 1 ON switch): -1; higher = weaker reporter binding
Settings: Eterna round: R95; input ligand: FMN 200 uM
Label true when apparent KD of MS2 coat protein is at or above 50 nM; anything below gets false.

Solved entries:
sequenceentry="CUAUUACGAGGAUAUGAUUUAAAUAACAUGAGGAUCACCCAUGUUUUUACGUUAUUUUAUUUAGAAGGCGUAUUGU [JR_E5_Sub028] (puzzle: Exclusion 5)" classification=false
sequenceentry="UCAAGCUUUAAGCGUGUGAACAUGAGGAUCACCCAUGUAUUUUAGGUAAUAAGUUCUUUUAUGUAUUCUCGUCUUAU [JR_SWV3TOV1_Sub094] (puzzle: Sensor v3, turn-off variant 1)" classification=true
sequenceentry="AGAUGGCGAGGAUAUACAUGAGGAUCACCCAUGUGAGAUAAGAAAGUGAGGAAGAAAAGUAGAAGGCGCUGUCA [Mat - Exclusion 3 - Mod of Salish D12] (puzzle: Exclusion 3)" classification=true

Q: Does AAGAAACAUGAGGAUCACCCAUGUGAGGAUAUGAAAAAGAAAAGAAAAGAAAGAAGGAUCAGAAGGCACAAAGG [salish99-ex1_r3_025] (puzzle: Exclusion 1) have a reported apparent KD of MS2 coat protein of at least 50 nM?
A: false

Q: Next: GACCGGACGUGGUCAGGUAACAUGAGGAUCACCCAUGUAGGUCUAAGAACAAGCCUUUUGUACGCUCGUCUUAUAUU [JR_SV3TOV1_Sub060] (puzzle: Sensor v3, turn-off variant 1)
A: false
